Tested on: Mycobacterium tuberculosis
Test: Antimycobacterial activity against Mycobacterium tuberculosis H37Rv ATCC 27294 assessed as growth inhibition at 1 uM after 6 days by luciferase reporter gene assay relative to control
Assay type: functional
Settings: H37Rv ATCC 27294, 144 h, read-out: GI
Decide by inhibition of growth at 1 µM: equal to or exceeding 30% means 1 (yes), less means 0 (no).

Req: # bool: inhibition of growth at 1 µM of O=Cc1ccc(OCCCCCCCCCCCCOc2ccc(C=O)cc2)cc1 >= 30%
Resp: 1 (yes)

Req: # bool: inhibition of growth at 1 µM of O=Cc1ccccc1OCCCCCOc1ccccc1C=O >= 30%
Resp: 0 (no)

Req: # bool: inhibition of growth at 1 µM of O=Cc1ccc(OCCCOc2ccc(C=O)cc2)cc1 >= 30%
Resp: 1 (yes)

Req: # bool: inhibition of growth at 1 µM of O=Cc1ccc(OCCCCOc2ccc(C=O)cc2)cc1 >= 30%
Resp: 0 (no)

Req: # bool: inhibition of growth at 1 µM of O=Cc1ccc(OCC(O)COc2ccc(C=O)cc2)cc1 >= 30%
Resp: 0 (no)

Req: # bool: inhibition of growth at 1 µM of O=Cc1ccc(OCCOCCOc2ccc(C=O)cc2)cc1 >= 30%
Resp: 0 (no)

Req: # bool: inhibition of growth at 1 µM of O=C(O)c1ccc(OCCCOc2ccc(C(=O)O)cc2)cc1 >= 30%
Resp: 0 (no)

Req: # bool: inhibition of growth at 1 µM of NNC(=O)c1ccncc1 [ISONIAZID] >= 30%
Resp: 1 (yes)

Req: # bool: inhibition of growth at 1 µM of O=C(O)c1ccc(OCCCCCCCCCCCOc2ccc(C(=O)O)cc2)cc1 >= 30%
Resp: 0 (no)

Req: # bool: inhibition of growth at 1 µM of O=[N+]([O-])c1ccc(OCCCCCCCCCCCCOc2ccc([N+](=O)[O-])cc2)cc1 >= 30%
Resp: 0 (no)

Req: # bool: inhibition of growth at 1 µM of O=C(O)c1ccc(OCCCCCCCCCOc2ccc(C(=O)O)cc2)cc1 >= 30%
Resp: 0 (no)

Req: # bool: inhibition of growth at 1 µM of O=Cc1cccc(OCCCCCOc2cccc(C=O)c2)c1 >= 30%
Resp: 0 (no)

Req: # bool: inhibition of growth at 1 µM of O=Cc1ccc(OCCCCCCCCCCCOc2ccc(C=O)cc2)cc1 >= 30%
Resp: 1 (yes)

Req: # bool: inhibition of growth at 1 µM of O=Cc1ccc(OCCCCCCCOc2ccc(C=O)cc2)cc1 >= 30%
Resp: 1 (yes)

Req: # bool: inhibition of growth at 1 µM of O=C(O)c1ccc(OCCCCCCCOc2ccc(C(=O)O)cc2)cc1 >= 30%
Resp: 0 (no)

Req: # bool: inhibition of growth at 1 µM of O=C(O)c1ccc(OCCCCCCOc2ccc(C(=O)O)cc2)cc1 >= 30%
Resp: 0 (no)

Req: # bool: inhibition of growth at 1 µM of O=Cc1cccc(OCCCCCCCCCCCCOc2cccc(C=O)c2)c1 >= 30%
Resp: 0 (no)

Req: # bool: inhibition of growth at 1 µM of CCCCCCCCCCCCOc1ccc(C=O)cc1 >= 30%
Resp: 0 (no)

Req: # bool: inhibition of growth at 1 µM of c1ccc(OCCCCCCCCCCCCOc2ccccc2)cc1 >= 30%
Resp: 0 (no)

Req: # bool: inhibition of growth at 1 µM of O=C(O)c1ccc(OCCOc2ccc(C(=O)O)cc2)cc1 >= 30%
Resp: 0 (no)

Req: # bool: inhibition of growth at 1 µM of O=C(O)c1ccc(OCCCCCCCCOc2ccc(C(=O)O)cc2)cc1 >= 30%
Resp: 0 (no)

Req: # bool: inhibition of growth at 1 µM of O=Cc1ccc(OCCCCCCCCCCCCCCOc2ccc(C=O)cc2)cc1 >= 30%
Resp: 1 (yes)

Req: # bool: inhibition of growth at 1 µM of O=C(O)c1ccc(OCOc2ccc(C(=O)O)cc2)cc1 >= 30%
Resp: 0 (no)

---

Test: Cytotoxicity against human HepG2/C3A cells assessed as cell viability at 60 uM after 24 hrs by neutral red uptake assay relative to control
Type: cell-based
Conditions: read-out: Activity
PROPERTY MEASURED: viability at 24 h, 60 µM (%)
Just the number in %, nothing appended.

Req: Would you kindly share the measured viability at 24 h, 60 µM for O=Cc1ccc(OCCCOc2ccc(C=O)cc2)cc1 ?
Resp: 94.9

Req: Would you kindly share the measured viability at 24 h, 60 µM for O=Cc1ccc(OCCCCCCOc2ccc(C=O)cc2)cc1 ?
Resp: 93.4

Req: Would you kindly share the measured viability at 24 h, 60 µM for O=Cc1ccc(OCCCCCCCCCCCOc2ccc(C=O)cc2)cc1 ?
Resp: 93.3

Req: Would you kindly share the measured viability at 24 h, 60 µM for O=Cc1ccc(OCCCCCCCOc2ccc(C=O)cc2)cc1 ?
Resp: 100

Req: Would you kindly share the measured viability at 24 h, 60 µM for O=Cc1ccc(OCCCCCCCCCCCCOc2ccc(C=O)cc2)cc1 ?
Resp: 101

Req: Would you kindly share the measured viability at 24 h, 60 µM for O=Cc1ccc(OCCCCOc2ccc(C=O)cc2)cc1 ?
Resp: 86.1

---

For each of the molecules below, state its inhibition of growth at 0.1 µM.
Test system: Mycobacterium tuberculosis
Assay: Antimycobacterial activity against Mycobacterium tuberculosis H37Rv ATCC 27294 assessed as growth inhibition at 0.1 uM after 6 days by luciferase reporter gene assay relative to control
Assay type: functional
Settings: H37Rv ATCC 27294, 144 h, read-out: GI

Req: Would you kindly share the measured inhibition of growth at 0.1 µM for O=C(O)c1ccc(OCCCCCCCOc2ccc(C(=O)O)cc2)cc1 ?
Resp: < 10%

Req: Would you kindly share the measured inhibition of growth at 0.1 µM for O=Cc1ccc(OCCCCCCCCOc2ccc(C=O)cc2)cc1 ?
Resp: 13%

Req: Would you kindly share the measured inhibition of growth at 0.1 µM for O=Cc1ccc(OCCOc2ccc(C=O)cc2)cc1 ?
Resp: < 10%

Req: Would you kindly share the measured inhibition of growth at 0.1 µM for O=C(O)c1ccc(OCCCCCCCCCCCCOc2ccc(C(=O)O)cc2)cc1 ?
Resp: < 10%

Req: Would you kindly share the measured inhibition of growth at 0.1 µM for O=Cc1ccc(OCCCCCOc2ccc(C=O)cc2)cc1 ?
Resp: < 10%

Req: Would you kindly share the measured inhibition of growth at 0.1 µM for O=C(O)c1ccc(OCCOc2ccc(C(=O)O)cc2)cc1 ?
Resp: < 10%

Req: Would you kindly share the measured inhibition of growth at 0.1 µM for O=Cc1cccc(OCCCCCCCCCCCCOc2cccc(C=O)c2)c1 ?
Resp: < 10%

Req: Would you kindly share the measured inhibition of growth at 0.1 µM for O=Cc1ccc(OCCCCCCCCCCOc2ccc(C=O)cc2)cc1 ?
Resp: 20%

Req: Would you kindly share the measured inhibition of growth at 0.1 µM for O=Cc1ccc(OCCCOc2ccc(C=O)cc2)cc1 ?
Resp: < 10%

Req: Would you kindly share the measured inhibition of growth at 0.1 µM for O=C(O)c1ccc(OCCCCCCOc2ccc(C(=O)O)cc2)cc1 ?
Resp: < 10%

Req: Would you kindly share the measured inhibition of growth at 0.1 µM for O=Cc1ccc(OCC(O)COc2ccc(C=O)cc2)cc1 ?
Resp: < 10%

Req: Would you kindly share the measured inhibition of growth at 0.1 µM for O=C(O)c1ccc(OCCCCCCCCCCOc2ccc(C(=O)O)cc2)cc1 ?
Resp: < 10%

Req: Would you kindly share the measured inhibition of growth at 0.1 µM for CCCCCCCCCCCCOc1ccc(C=O)cc1 ?
Resp: < 10%

Req: Would you kindly share the measured inhibition of growth at 0.1 µM for O=Cc1ccc(OCCOCCOc2ccc(C=O)cc2)cc1 ?
Resp: < 10%

Req: Would you kindly share the measured inhibition of growth at 0.1 µM for O=Cc1ccc(OCCCCCCCCCCCCOc2ccc(C=O)cc2)cc1 ?
Resp: 26%

Req: Would you kindly share the measured inhibition of growth at 0.1 µM for O=C(O)c1ccc(OCCCCCCCCCCCOc2ccc(C(=O)O)cc2)cc1 ?
Resp: < 10%

Req: Would you kindly share the measured inhibition of growth at 0.1 µM for O=[N+]([O-])c1ccc(OCCCCCCCCCCCCOc2ccc([N+](=O)[O-])cc2)cc1 ?
Resp: < 10%

Req: Would you kindly share the measured inhibition of growth at 0.1 µM for O=C(O)c1ccc(OCOc2ccc(C(=O)O)cc2)cc1 ?
Resp: < 10%

Req: Would you kindly share the measured inhibition of growth at 0.1 µM for O=Cc1ccc(OCCCCCCOc2ccc(C=O)cc2)cc1 ?
Resp: 15%

Req: Would you kindly share the measured inhibition of growth at 0.1 µM for c1ccc(OCCCCCCCCCCCCOc2ccccc2)cc1 ?
Resp: < 10%

Req: Would you kindly share the measured inhibition of growth at 0.1 µM for O=C(O)c1ccc(OCCCOc2ccc(C(=O)O)cc2)cc1 ?
Resp: < 10%

Req: Would you kindly share the measured inhibition of growth at 0.1 µM for O=C(O)c1ccc(OCCCCCOc2ccc(C(=O)O)cc2)cc1 ?
Resp: < 10%

Req: Would you kindly share the measured inhibition of growth at 0.1 µM for O=Cc1ccc(OCCCCCCCCCOc2ccc(C=O)cc2)cc1 ?
Resp: 11%

Req: Would you kindly share the measured inhibition of growth at 0.1 µM for O=Cc1ccc(OCCCCCCCCCCCOc2ccc(C=O)cc2)cc1 ?
Resp: 25%
